Tested on: A549 NSCLC
Test: NCI tumour cell line growth inhibition, 48 h
Give measured TGI for each item. Keep answers brief.

Please look up its TGI: `CCn1c(-c2cc3c([nH]c4ccccc43)c(-c3cccc(O)c3)n2)n[nH]c1=S`
18.8 µM

Value lookup for TGI; key = CCOC(=O)C(NC(=O)CC)(Nc1ccc(S(=O)(=O)Nc2onc(C)c2C)cc1)C(F)(F)F (stereo unspecified)
> 100 µM

Requested field: TGI. Item: `COc1ccc2c(c1)OCCc1cn[nH]c1-2`
> 100 µM

What does the data say about its TGI? Entry: `Cc1ccc(S(=O)(=O)[C@@H](Cl)[C@H]2N=C(Cl)NN=C2c2ccccc2)cc1`
> 100 µM

Given COc1ccc(OC(C(=O)O)C(C)C)c2c1CCCC2=O (stereo unspecified) , state its recorded TGI.
> 100 µM

I have this molecule here, `O=C(/C=C/c1ccc(C(F)(F)F)cc1)Nc1ccc(C=C2c3ccccc3C(=O)c3ccccc32)cc1` , and I need its recorded TGI.
> 100 µM

Using the record for `C=C1[C@@](C)([C@@H]2CCCS2)[C@H]2C(C)=C[C@]1(C)n1c(=O)n(-c3ccccc3)c(=O)n12` , report its TGI.
> 100 µM

Need TGI of `CN(C)/C=N\c1ccnc(=O)[nH]1` , thanks.
> 100 µM

Any idea what its TGI is? The molecule is `CN(C)c1nc(=NCc2ccco2)ss1`
> 76.7 µM

Name the reported TGI value associated with the molecule COc1cc(C2C(Cl)C(=O)N2NC(=O)c2ccc(NC(C)=O)cc2)ccc1O (stereo unspecified)
> 100 µM

Would you kindly share the measured TGI for `Cn1c(=O)c2[nH]c(SCCN3CCOCC3)nc2n(C)c1=S` ?
> 100 µM

----------
Tested on: RXF 393 renal
Assay: NCI tumour cell line growth inhibition, 48 h
Please note: Condition met applies when TGI is 40 µM or greater, and Condition not met applies otherwise.

Is TGI for `N#C/C(=C\c1cccc(O)c1O)C(N)=O` at or above 40 µM?
Condition not met

Tell me whether TGI is at least 40 µM here: CCOC(=O)C(NC(=O)CC)(Nc1ccc(S(=O)(=O)Nc2onc(C)c2C)cc1)C(F)(F)F (stereo unspecified)
Condition met

I'd appreciate it if you could say whether `CC1(c2cc3c(cc2Br)OCO3)SCCCS1` has TGI at least equal to 40 µM.
Condition not met

Exam item: decide whether the reported TGI for `CNNC(=N\S(=O)(=O)c1cc(C)c(Cl)cc1SCc1ccccc1)/N=C/c1ccc([N+](=O)[O-])s1` is at least 40 µM.
Condition met

Determine whether measured TGI meets or exceeds 40 µM for `Cc1nnc2n(c1=O)CCN2C`
Condition met

Tell me whether TGI is at least 40 µM here: `CCOC(=O)CN(Cn1cncn1)Cn1cncn1`
Condition not met

Item O=C1CC(C(OCc2ccccc2)C(OCc2ccccc2)C(COCc2ccccc2)OCc2ccccc2)CC(=O)N1 (stereo unspecified) with TGI of 40 µM or above?
Condition met

State whether the measured TGI reaches 40 µM, counting equality as reaching it, for `CCN(Cc1cc(F)ccc1F)c1ccc(CO)c(Cl)c1`
Condition not met

Does the compound CCCCCCCC(=O)OCCCC1[C@]2(C)CC[C@@]3(C)C([C@H](C)CCC=C(C)C)CC[C@]3(C)C2CC[C@]12OC2(C)C (stereo partly specified) have recorded TGI that is 40 µM or more?
Condition met

Confirm if TGI reported for the compound Cc1cn(C2CC(CCCO)C(CO)O2)c(=O)[nH]c1=O (stereo unspecified) is 40 µM or above.
Condition met

----------
Consider the following molecules; for each one, report its TGI.
System: NCI/ADR-RES ovarian
Assay: NCI tumour cell line growth inhibition, 48 h

Tell me the measured TGI of `Oc1c(Cl)cc(Cl)c2ccc(Cn3cc(-c4cc(C(F)(F)F)cc(C(F)(F)F)c4)nn3)nc12` , please.
71.6 µM

Would you kindly share the measured TGI for COc1ccc(C(Cc2ccccc2)C2NC(=S)NC2=O)cc1 (stereo not drawn) ?
> 25 µM

// lookup TGI for `Cc1cc(C)c2c(n1)sc1c(N)ncnc12`
> 25 µM

So what does the record say about TGI for C[S+](C)CC1OC(n2cnc3c(N)ncnc32)C(O)C1O (stereo not drawn) ?
> 225 µM

If you can, please state the reported TGI value of `COc1ccc(/C=C/C(=O)c2ccc(-n3cc(CN4CCN(c5cc6c(cc5F)c(=O)c(C(=O)O)cn6C5CC5)CC4)nn3)cc2)cc1OC` .
> 100 µM

Need TGI of `COc1cc2ncnc(-n3ncc4cc(NC(=O)Nc5ccc(Cl)c(Cl)c5)ccc43)c2cc1OC` , thanks.
6.23 µM

What value of measured TGI is listed for `Cc1ccc(N(O)C(C)(C)C)cc1` ?
> 100 µM

GET /values?readout=TGI&item= CN(Cc1ccc(C(F)(F)F)cc1)CC(O)C(=O)Nc1ccc(Cl)cc1 (stereo not drawn)
3.02 µM

What value of TGI has been recorded for this entry: COC(=O)c1c(CC(Cc2ccc3c(c2)CCCC3)C(=O)OC)ccc2c1CCCC2 (stereo not drawn)
> 100 µM

I'd like to know its TGI. The molecule in question is `CCN(CC)CCCNC(=O)c1cc2cc(NC(=O)c3cc4cc([N+](=O)[O-])ccc4[nH]3)ccc2[nH]1`
> 100 µM

If you can, please state the reported TGI value of `[O-][N+]1(CC[N+]2([O-])CCCCC2)CCCCC1` .
> 100 µM

Suppose we examine the molecule `Cc1ccc(S(=O)(=O)[C@@H](Cl)[C@H]2N=C(Cl)NN=C2c2ccccc2)cc1` ; what TGI value has been reported?
50.8 µM

Given the entry O=[N+]([O-])c1nccn1CC(O)CN1CCCCC1 (stereo not drawn) , report its measured TGI.
> 100 µM

What value of measured TGI is listed for O=NN(CCF)C(=O)NC1CC2CCC1C2 (stereo not drawn) ?
> 100 µM

Can you look up the measured TGI of C=C(C)C1CC/C(C)=C/CC[C@]2(C)O[C@@H]2CCC2=CC1OC2=O (stereo partly drawn) for me?
> 100 µM

Reported TGI, molecule Oc1ccccc1C1C=C(c2ccccc2)NC(N2CCCCC2)=C1c1nc2ccccc2[nH]1 (stereo not drawn) : ____
34 µM

Consider the molecule shown here: `O=c1cc(-c2ccc(O)cc2)oc2cc(O[C@@H]3O[C@H](CO)[C@@H](O)[C@H](O)[C@H]3O)cc(O)c12` What is its recorded TGI?
> 100 µM

Requested field: TGI. Item: `Nc1cccc(S(=O)(=O)Nc2nnc(S(N)(=O)=O)s2)c1`
> 100 µM

Find the recorded TGI belonging to CCOc1ccc(N=NC2C(=O)N(C(=O)CC(=O)Nc3ccccc3)N=C2C)cc1 (stereo not drawn) and report it.
> 100 µM

Which measured TGI value corresponds to `CCN1CCN(c2cc(C)nc(N(CCCNc3ccnc4cc(Cl)ccc34)Cc3ccc4c(c3)OCO4)n2)CC1` ?
58.5 µM

For the molecule `Cc1ccc(-c2cc(O)c3nc4ccccc4n3c2)cc1` , what TGI is on record?
> 100 µM

Which measured TGI value corresponds to CC(=O)OC1C2CCC3C(C)(O)C4CC(O)C(C)(C)C4(O)C(O)CC13CC2(C)O (stereo not drawn) ?
> 100 µM

Look up TGI for this molecule: `CCN1CCN(Cc2ccc(NC(=O)Nc3nc4ccc(Oc5ccnc(C(=O)NC)c5)cc4s3)cc2C(F)(F)F)CC1`
4.21 µM

Please report the recorded TGI for `O=[N+]([O-])c1ccc2oc(=Nc3ccccc3)c(Nc3ccccc3)nc2c1` .
> 100 µM

Which value of TGI has been reported for CC(=O)OC12c3ccccc3C(c3ccccc31)C1C(=O)N(c3ccccn3)C(=O)C12 (stereo not drawn) in the records?
> 100 µM

I have this molecule here, `COC(=O)[C@@](C)(COC(=O)C(C)(C)C)NC(=O)OC(C)(C)C` , and I need its recorded TGI.
> 100 µM

Quick one: TGI for `Cc1ccc(NC2=NCCO2)c2c1CCC2` ?
50 µM

Param item = `COc1ccc(C(=O)c2cc3c(N)c(C(=O)Nc4ccccc4)sc3nc2C)cc1` ; retrieve measured TGI.
> 100 µM

----------
Test system: SK-OV-3 ovarian
Assay: NCI tumour cell line growth inhibition, 48 h; in the data active = GI50 below about 0.43 µM; inactive = the rest
# valid calls are true = active, false = inactive; nothing else

Record lookup: outcome of this test for COC(=O)c1cc2c(cc1Cl)SC1=NN(C)S(=O)N1S2(=O)=O (centres undefined) ?
false

Recorded test outcome, item `COc1ccc(Nc2nc3ccccc3c3occc23)cc1`
true

Look up the recorded call for `COc1ccc(C(=O)c2cc3c(N)c(C(=O)Nc4ccccc4)sc3nc2C)cc1` in this test.
false

// param item: `CN1CCN(Cc2ccc(NC(=O)c3cncc(C#Cc4cnc(N)cc4C#N)c3)cc2C(F)(F)F)CC1` ; yields the recorded call
false

Can you look up the reported call for Cc1nc2ccc(Br)cc2c(=O)n1-c1ccc(NC2OCC(O)C(O)C2O)cc1 (centres undefined) for me?
false

Write down the call the test reported for this compound. Item: `CC(C)c1nc(N(C)S(C)(=O)=O)nc(-c2ccc(F)cc2)c1/C=C/[C@@H](O)C[C@@H](O)CC(=O)O`
false

Each compound tested received a call. Report the one for `CC1=C2C(=CC(C)(C)[C@@H]2O)C(=O)[C@](C)(O)C12CC2` .
true

How was C=C(C)C1CC/C(C)=C/CC[C@]2(C)O[C@@H]2CCC2=CC1OC2=O (some centres undefined) classified in this test?
false

# lookup: test call for NCCCCC1NC(=O)C(CC(=O)O)NC(=O)CNC(=O)C(CCCN=C(N)N)NC(=O)C(N)CSSCC(C(=O)O)NC(=O)C(CC(=O)O)NC(=O)C2CCCN2C(=O)CNC1=O (centres undefined)
false

Source: PubChem BioAssay (NCI)
